STUDY_SYSTEM: hCB1 (Homo sapiens, UniProt P21554)
Sequence (P21554 whole entry): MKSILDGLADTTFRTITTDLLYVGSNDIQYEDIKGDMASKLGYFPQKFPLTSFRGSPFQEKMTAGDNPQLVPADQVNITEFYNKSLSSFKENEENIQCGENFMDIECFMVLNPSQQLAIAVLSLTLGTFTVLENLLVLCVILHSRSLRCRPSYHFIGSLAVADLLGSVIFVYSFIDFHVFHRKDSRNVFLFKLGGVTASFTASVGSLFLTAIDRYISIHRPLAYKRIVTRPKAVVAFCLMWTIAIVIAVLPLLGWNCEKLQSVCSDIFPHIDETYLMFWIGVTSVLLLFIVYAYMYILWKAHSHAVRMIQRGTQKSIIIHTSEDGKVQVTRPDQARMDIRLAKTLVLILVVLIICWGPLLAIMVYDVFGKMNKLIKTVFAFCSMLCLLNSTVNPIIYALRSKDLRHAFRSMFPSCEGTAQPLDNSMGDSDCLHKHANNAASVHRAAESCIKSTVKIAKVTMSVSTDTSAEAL
METHOD: hCB1 cAMP agonist assay (HEK-293 cells)
Format: cell-based
pEC50: −log10 of the molar value.
Kindly state pEC50 for each of the entries shown.

Prompt: Using hCB1 (Homo sapiens, UniProt P21554) as the test system, report measured pEC50 of CCCCn1c(C)c(C(=O)c2cc3ccsc3n2CCC)c2ccccc21 .
Response: > 7.00

Prompt: State, for hCB1 (Homo sapiens, UniProt P21554), measured pEC50 of the compound listed here: CCCn1c(C(=O)c2c(C)n(CCN3CCOCC3)c3ccccc23)cc2ccsc21
Response: 6.00 to 7.00

Prompt: State the measured pEC50 (hCB1 (Homo sapiens, UniProt P21554)) of CCCn1cc(C(=O)c2cc3ccsc3n2CCC)c2ccccc21
Response: > 7.00

Prompt: Provide pEC50, system hCB1 (Homo sapiens, UniProt P21554), entry CCCn1cc(C(=O)c2cc3ccsc3n2CC)c2cccnc21
Response: 5.00 to 6.00

Prompt: Give pEC50 only, for CCn1c(C(=O)c2c(C)n(CC3CCOCC3)c3ccccc23)cc2ccsc21 , using hCB1 (Homo sapiens, UniProt P21554) data.
Response: 6.00 to 7.00

Prompt: Identify measured pEC50 obtained with hCB1 (Homo sapiens, UniProt P21554) for CCCn1c(C)c(C(=O)c2cc3ccsc3n2CC)c2cccc(OC)c21 .
Response: 6.00 to 7.00

Prompt: Give pEC50 for this entry on hCB1 (Homo sapiens, UniProt P21554): CCCn1cc(C(=O)c2cc3ccsc3n2C)c2ccccc21
Response: 6.00 to 7.00

Prompt: Give measured pEC50 for C=CCn1cc(C(=O)c2cc3ccsc3n2CC)c2cnccc21 (hCB1 (Homo sapiens, UniProt P21554)).
Response: 6.00 to 7.00

Prompt: Fill in pEC50 for CCCn1cc(C(=O)c2cc3ccsc3n2CC)c2ccccc21 tested with hCB1 (Homo sapiens, UniProt P21554).
Response: 6.00 to 7.00

Prompt: Look up and report pEC50, with hCB1 (Homo sapiens, UniProt P21554) as system, for CCCn1c(C(=O)c2cn(CC3CCOCC3)c3ccccc23)cc2ccsc21
Response: > 7.00

Prompt: // output pEC50; input CCCn1c(C(=O)c2c(C)n(CC3CCOCC3)c3ccccc23)cc2ccsc21 ; system hCB1 (Homo sapiens, UniProt P21554)
Response: > 7.00

Prompt: Send back hCB1 (Homo sapiens, UniProt P21554) pEC50 of CCn1c(C(=O)c2cn(CC3CCOCC3)c3ccccc23)cc2ccsc21 only.
Response: > 7.00

Prompt: # return pEC50 for CCCn1cc(C(=O)c2cc3ccsc3n2CCC)c2cccnc21 , test system: hCB1 (Homo sapiens, UniProt P21554)
Response: 6.00 to 7.00

Prompt: Report measured pEC50 on hCB1 (Homo sapiens, UniProt P21554); entry: CCCn1c(C(=O)c2c(C)n(CCC3CCOCC3)c3ccccc23)cc2ccsc21
Response: 6.00 to 7.00

Prompt: System hCB1 (Homo sapiens, UniProt P21554). Read-out pEC50. Item CCCCCn1c(C)c(C(=O)c2cc3ccsc3n2CCC)c2ccccc21 . Report value.
Response: > 7.00
